# measuredTarget: c-Met phosphorylation (pY1349) in NCI-H460 cells (Homo sapiens)
# Construct: host or cells: NCI-H460
# Sequence (P08581 25-1390): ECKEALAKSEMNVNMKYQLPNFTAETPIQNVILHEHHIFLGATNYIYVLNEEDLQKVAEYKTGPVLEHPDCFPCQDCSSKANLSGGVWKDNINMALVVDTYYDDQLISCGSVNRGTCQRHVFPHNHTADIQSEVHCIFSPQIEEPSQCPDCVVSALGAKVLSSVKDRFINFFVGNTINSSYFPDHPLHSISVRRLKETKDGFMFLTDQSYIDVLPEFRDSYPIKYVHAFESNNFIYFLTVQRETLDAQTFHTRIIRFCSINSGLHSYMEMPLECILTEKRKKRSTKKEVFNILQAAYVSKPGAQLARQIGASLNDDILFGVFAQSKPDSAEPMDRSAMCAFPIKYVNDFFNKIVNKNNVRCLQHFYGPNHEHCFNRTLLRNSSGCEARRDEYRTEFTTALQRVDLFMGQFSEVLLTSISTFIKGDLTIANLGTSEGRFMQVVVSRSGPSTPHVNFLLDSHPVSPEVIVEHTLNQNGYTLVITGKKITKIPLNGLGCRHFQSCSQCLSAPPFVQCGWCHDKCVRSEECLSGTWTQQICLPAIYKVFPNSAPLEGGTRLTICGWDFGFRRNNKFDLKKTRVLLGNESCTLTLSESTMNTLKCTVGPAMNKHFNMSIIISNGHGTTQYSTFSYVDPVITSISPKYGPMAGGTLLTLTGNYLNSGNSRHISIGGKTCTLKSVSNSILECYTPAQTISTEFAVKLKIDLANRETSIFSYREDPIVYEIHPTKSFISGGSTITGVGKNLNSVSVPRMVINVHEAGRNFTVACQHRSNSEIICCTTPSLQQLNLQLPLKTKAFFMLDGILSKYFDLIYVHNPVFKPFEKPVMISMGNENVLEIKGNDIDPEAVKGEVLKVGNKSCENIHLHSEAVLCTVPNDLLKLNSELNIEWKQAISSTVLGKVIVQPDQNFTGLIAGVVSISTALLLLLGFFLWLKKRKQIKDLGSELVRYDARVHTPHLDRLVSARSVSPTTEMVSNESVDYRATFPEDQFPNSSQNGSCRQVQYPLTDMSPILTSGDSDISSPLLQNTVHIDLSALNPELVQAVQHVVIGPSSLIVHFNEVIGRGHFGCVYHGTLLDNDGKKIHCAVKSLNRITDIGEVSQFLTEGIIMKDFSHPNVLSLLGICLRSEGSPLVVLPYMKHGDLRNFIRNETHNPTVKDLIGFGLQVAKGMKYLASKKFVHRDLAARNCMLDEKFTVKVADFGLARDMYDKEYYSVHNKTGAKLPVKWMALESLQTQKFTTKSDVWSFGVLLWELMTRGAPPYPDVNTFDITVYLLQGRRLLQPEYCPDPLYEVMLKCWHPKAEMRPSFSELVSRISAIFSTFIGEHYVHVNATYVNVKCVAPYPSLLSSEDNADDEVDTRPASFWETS
# protocolDetails: HGF Stimulated Met (pY1349) NCI-H460 Cell-based ELISA
# measurementConditions: 0.2 μM compound
readout: Mean (Counts − Blanks)

Take a look at these entries with their results.
O=C(Nc1ccc(Oc2ncnc3cc4c(cc23)OCO4)c(F)c1)c1c[nH]cc(-c2ccc(F)cc2)c1=O [Example 9]	27649
CN1CCOc2cc3ncnc(Oc4ccc(-c5cnc(Nc6ccc(F)cc6)n(C)c5=O)nc4)c3cc2OCC1 [Example 21]	29384
O=C(Nc1ccc(Oc2ccnc3cc4c(cc23)OCCOCCOCCO4)c(F)c1)c1cccn(-c2ccc(F)cc2)c1=O [Example 11]	31407

a = Cn1c(Nc2ccccc2)ncc(-c2ccc(Oc3ccnc4cc5c(cc34)OC(F)(F)O5)cn2)c1=O [Example 28]
b = O=C(Nc1ccc(Oc2ncnc3cc4c(cc23)OCCOCCOCCO4)c(F)c1)c1c[nH]cc(-c2ccc(F)cc2)c1=O [Example 1]
c = Cn1c(Nc2ccc(F)cc2)ncc(-c2ccc(Oc3ncnc4cc5c(cc34)OCCOCCOCCO5)cn2)c1=O [Example 6]
d = Cn1c(Nc2ccccc2)ncc(-c2ccc(Oc3ccnc4cc5c(cc34)OCCOCCOCCOCCOCCO5)cn2)c1=O [Example 31]
Task item: Rank ascending by Mean (Counts − Blanks). List labels; respect the requested ordering.
Reply: a, b, d, c
